target: UniProt A0A2K5ULY1; experiment: Inhibition of cortisol synthesis (cynomolgus adrenal mitochondria, cortisol by mass spectrometry); format: biochemical, cynomolgus monkey; conditions: cynomolgus adrenal gland mitochondria, 11-deoxycortisol as substrate, cortisol measured as product; read-out: CYP11B1 Inhibition IC50
pIC50: −log10 of the molar value.
Outcome Measure: pIC50

Consider the following illustrative entries.
COc1ccc(Cc2onc3c2C(=O)CC(C)(C)C3)cc1C#N [Cpd 34] :: 4.60
NC(=O)c1ccc(Cc2onc3c2C(=O)CC(CC2CC2)C3)cc1 (centres unmarked) [Cpd 51] :: 5.43

a = CC1(C)CC(=O)c2c(noc2Cc2ccc(S(C)(=O)=O)cc2)C1 [Cpd 9]
b = O=C(O)c1ccc(Cc2onc3c2C(=O)CC(CC2CC2)C3)cc1 (centres unmarked) [Cpd 45]
c = CC(C)C1CC(=O)c2c(noc2CC2CCN(C(N)=O)CC2)C1 (centres unmarked) [Cpd 21]
Input line: Sort (3 compounds) by pIC50: min first. In your reply, arrange the labels in the requested order.
Output line: b, c, a
(b: 4.19, c: 4.64, a: 5.43)

----------
biological target: cortisol synthase (CYP11B1) (Macaca fascicularis, UniProt A0A2K5ULY1); assay: Inhibition of cortisol synthesis (cynomolgus adrenal mitochondria, cortisol by mass spectrometry); assay type: biochemical, cynomolgus monkey; conditions: cynomolgus adrenal gland mitochondria, 11-deoxycortisol as substrate, cortisol measured as product; read-out: CYP11B1 Inhibition IC50
pIC50: −log10 of the molar value.
Outcome Measure: pIC50

// below: answered compounds
COc1ccc(Cc2onc3c2C(=O)CC(C)(C)C3)cn1 [Cpd 10] :: 5.11
N#Cc1ccc(Cc2onc3c2C(=O)CC(Cc2ccccc2)C3)cc1 (stereo not drawn) [Cpd 28] :: 5.31
CN(C)C(=O)CCOc1ccc(Cc2onc3c2C(=O)CC(C)(C)C3)cc1 [Cpd 82] :: 5.40
CC1(C)CC(=O)c2c(noc2Cc2ccc(OCCC(=O)N3CC[C@@H](O)C3)cc2)C1 [Cpd 83] :: 5.57
CC1(C)CC(=O)c2c(noc2Cc2ccc(C(=O)N3CC[C@H](S(C)(=O)=O)C3)cc2)C1 [Cpd 53] :: 5.17
CC1(C)CC(=O)c2c(noc2Cc2ccc(C(=O)N3CCC[C@@H](O)C3)cc2)C1 [Cpd 72] :: 5.23
CC1CC(=O)c2c(noc2Cc2ccc(C#N)cc2)C1 (stereo not drawn) [Cpd 36] :: 5.12
CC(C)C1CC(=O)c2c(noc2CC2CC2)C1 (stereo not drawn) [Cpd 6] :: 4.68
CC1(C)CC(=O)c2c(noc2Cc2ccc(C(=O)NCCS(C)(=O)=O)cc2)C1 [Cpd 61] :: 5.13
CC1(C)CC(=O)c2c(noc2Cc2ccc(C(=O)N3CCCC3)cc2)C1 [Cpd 52] :: 4.85

1 = CC1(C)CC(=O)c2c(noc2Cc2ccc(C(=O)N3CCC[C@H](O)C3)cc2)C1 [Cpd 60]
2 = CC(C)C1CC(=O)c2c(noc2CC2CCN(C(=O)CO)CC2)C1 (stereo not drawn) [Cpd 19]
3 = CC1(C)Cc2noc(Cc3ccc(OCCS(C)(=O)=O)cc3)c2C(=O)O1 [Cpd 91]
4 = COCCNC(=O)c1ccc(Cc2onc3c2C(=O)CC(C)(C)C3)cc1 [Cpd 58]
5 = CS(=O)(=O)CCCOc1ccc(Cc2onc3c2C(=O)CC(CC2CC2)C3)cc1 (stereo not drawn) [Cpd 24]
Input line: Highest pIC50 first, then in falling order down to the smallest. Answer format: list of labels, ordered as asked.
Output line: 5, 4, 1, 2, 3
(5: 5.89, 4: 5.47, 1: 5.23, 2: 5.00, 3: 4.68)

I = CC1(C)Cc2noc(Cc3ccc(OCCCS(C)(=O)=O)cc3)c2C(=O)O1 [Cpd 90]
II = CC1(C)CC(=O)c2c(noc2Cc2cccc(C#N)c2)C1 [Cpd 11]
Input line: Would you kindly point out which of I and II has the smaller pIC50 figure? Indicate your choice by writing its label.
Output line: II
(II: 5.03, I: 5.34)

A = CC1(C)CC(=O)c2c(noc2Cc2ccc(C(N)=O)cc2)C1 [Cpd 75]
B = CC1(C)CC(=O)c2c(noc2Cc2ccc(OCCCC(=O)N3CC[C@@H](O)C3)cc2)C1 [Cpd 84]
Input line: Would you kindly point out which of A and B has the smaller pIC50 figure? Answer with the label corresponding to your selection.
Output line: A
(A: 4.82, B: 5.16)

----------
molecular target: cortisol synthase (CYP11B1) (Macaca fascicularis, UniProt A0A2K5ULY1); test: Inhibition of cortisol synthesis (cynomolgus adrenal mitochondria, cortisol by mass spectrometry); assay type: biochemical, cynomolgus monkey; details: cynomolgus adrenal gland mitochondria, 11-deoxycortisol as substrate, cortisol measured as product; read-out: CYP11B1 Inhibition IC50
Outcome Measure: IC50 (µM)

Worked examples follow.
CC(=O)N1CCC(Cc2onc3c2C(=O)CC(C)(C)C3)CC1 :: 24
CC1(C)CC(=O)c2c(noc2Cc2ccc(C(=O)N3CC[C@H](O)C3)cc2)C1 :: 7.6

A = NC(=O)N1CCC(Cc2onc3c2C(=O)CC2(CCC2)C3)CC1
B = CC1(C)CC(=O)c2c(noc2Cc2ccc(C(=O)N3CCNC(=O)C3)cc2)C1
Input line: Between A and B , which one shows the larger IC50 value? Kindly state the label of the option you pick.
Output line: B

----------
Biological target: cortisol synthase (CYP11B1) (Macaca fascicularis, UniProt A0A2K5ULY1)
Experiment: Inhibition of cortisol synthesis (cynomolgus adrenal mitochondria, cortisol by mass spectrometry)
Format: biochemical, cynomolgus monkey
Conditions: cynomolgus adrenal gland mitochondria, 11-deoxycortisol as substrate, cortisol measured as product; read-out: CYP11B1 Inhibition IC50
Protocol: The aldosterone synthase and cortisol synthase inhibition assays employ cynomolgus adrenal gland mitochondria as the source of aldosterone synthase (CYP11B2) and cortisol synthase (CYP11B1). […] Dose dependent inhibition is quantified by the inclusion of compound at various concentrations. […] Assays are performed as for aldosterone synthase except for the use of 150 units of CYP11B1, 11-deoxycortisol as substrate and cortisol measured as product.
pIC50: −log10 of the molar value.
Outcome Measure: pIC50

CC1(C)Cc2noc(Cc3ccc(C(N)=O)cc3)c2C(=O)O1 [Cpd 95] :: 4.80
COCC(=O)N1CCC(Cc2onc3c2C(=O)CC(C(C)C)C3)CC1 (centres unmarked) [Cpd 18] :: 5.55
O=C1CC(Cc2ccccc2)Cc2noc(Cc3ccccc3)c21 (centres unmarked) [Cpd 26] :: 5.64

a = CN(CCO)C(=O)c1ccc(Cc2onc3c2C(=O)CC(C)(C)C3)cc1 [Cpd 59]
b = C[C@@H](O)CNC(=O)c1ccc(Cc2onc3c2C(=O)CC(C)(C)C3)cc1 [Cpd 73]
c = CNC(=O)CCOc1ccc(Cc2onc3c2C(=O)CC(C)(C)C3)cc1 [Cpd 80]
d = CC(C)C1CC(=O)c2c(noc2Cc2ccc(C(N)=O)cc2)C1 (centres unmarked) [Cpd 76]
e = CC(=O)N1CCC(Cc2onc3c2C(=O)CC2(CCC2)C3)CC1 [Cpd 16]
Input line: Exam item: list the entries in increasing order of pIC50. A complete answer lists every label in the requested sequence.
Output line: b, a, e, c, d
(b: 4.64, a: 4.96, e: 5.41, c: 5.74, d: 6.28)

P = CN(C)C(=O)CCCOc1ccc(Cc2onc3c2C(=O)CC(C)(C)C3)cc1 [Cpd 79]
Q = CC1(C)Cc2noc(Cc3ccc(C(=O)N4CC[C@@H](O)C4)cc3)c2C(=O)O1 [Cpd 93]
R = N#Cc1ccc(Cc2onc3c2C(=O)CC(CC2CC2)C3)cc1 (centres unmarked) [Cpd 30]
Input line: Output the entries ranked by pIC50 from maximum down to minimum. Use the labels to give the requested order.
Output line: Q, P, R
(Q: 5.59, P: 5.11, R: 4.85)

a = COc1ccc(Cc2onc3c2C(=O)OC(C)(C)C3)cc1 [Cpd 89]
b = CC1(C)CC(=O)c2c(noc2Cc2ccc(C(=O)NCCS(N)(=O)=O)cc2)C1 [Cpd 54]
c = CC(=O)N1CCC(Cc2onc3c2C(=O)CC(C(C)C)C3)CC1 (single isomer, unassigned) [Cpd 15B]
Input line: # rank_down: sort by pIC50, max first Provide the labels, sequenced as the question asks.
Output line: b, a, c

----------
molecular target: UniProtKB A0A2K5ULY1; test: Inhibition of cortisol synthesis (cynomolgus adrenal mitochondria, cortisol by mass spectrometry); type: biochemical, cynomolgus monkey; settings: cynomolgus adrenal gland mitochondria, 11-deoxycortisol as substrate, cortisol measured as product; read-out: CYP11B1 Inhibition IC50
pIC50: −log10 of the molar value.
Outcome Measure: pIC50

Solved entries:
CC(C)N(CCO)C(=O)c1ccc(Cc2onc3c2C(=O)CC(C)(C)C3)cc1 :: 5.14
O=C(O)c1ccc(Cc2onc3c2C(=O)CC(Cc2ccccc2)C3)cc1 (stereo not drawn) :: < 4.00

In the following, a different compound is considered.
Input line: I would be grateful if you could share the reported pIC50 for COc1ccc(Cc2onc3c2C(=O)CC(C2CCOCC2)C3)cc1 (stereo not drawn) .
Output line: < 4.00
